Here, each record is paired with measured EC50 data.
target: hGcgR (Homo sapiens, UniProt P47871); assay: Functional cAMP activation in the presence of 0.1% casein (no HSA); format: cell-based; conditions: read-out: Relative cAMP EC50, hGcgR;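 note: intracellular cAMP rise after 30 min at 37 °C, read by HTRF against a cAMP standard curve, scaled from buffer only (0%) to maximal control ligand response (100%)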
Sequence (P47871 26-477): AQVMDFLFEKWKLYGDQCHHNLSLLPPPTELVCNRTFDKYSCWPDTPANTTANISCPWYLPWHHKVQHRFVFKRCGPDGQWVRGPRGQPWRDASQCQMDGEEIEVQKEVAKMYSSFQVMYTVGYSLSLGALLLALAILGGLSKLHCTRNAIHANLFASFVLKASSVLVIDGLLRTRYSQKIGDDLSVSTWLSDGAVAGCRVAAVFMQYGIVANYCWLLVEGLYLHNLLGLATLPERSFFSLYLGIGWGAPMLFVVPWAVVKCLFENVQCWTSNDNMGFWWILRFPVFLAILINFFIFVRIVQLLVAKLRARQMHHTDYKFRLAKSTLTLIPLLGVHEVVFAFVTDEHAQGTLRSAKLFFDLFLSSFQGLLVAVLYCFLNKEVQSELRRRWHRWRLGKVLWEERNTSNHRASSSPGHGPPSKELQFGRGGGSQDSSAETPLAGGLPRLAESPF
Starred links: 1 amine or outer side, 2 acyl side, 3 side chain; linkers in the order of their positions; H or OH if unused. Non-standard residues stand in square brackets, D forms with d. Groups on a side chain read outwards from the residue. No end group written: not given here. *: point of attachment. C18 diacid = O=C(O)CCCCCCCCCCCCCCCCC(=O)*; αMePhe(2-F) = C[C@](N)(Cc1ccccc1F)C(=O)O; γGlu = O=C(O)[C@H](CCC(=O)[*:2])N[*:1]; αMe4Pal = C[C@](N)(Cc1ccncc1)C(=O)O; αMeY = C[C@](N)(Cc1ccc(O)cc1)C(=O)O; 4Pal = N[C@@H](Cc1ccncc1)C(=O)O; αMeL = CC(C)C[C@](C)(N)C(=O)O; αMeS = C[C@](N)(CO)C(=O)O; Orn = NCCC[C@H](N)C(=O)O; AEEA = NCCOCCOCC(=O)O; Aib = CC(C)(N)C(=O)O
# value in nM; strip the unit string

H-Y[Aib]QGT[αMePhe(2-F)]TSD[4Pal][αMeS]I[αMeL]LD[Orn]K([AEEA-γGlu-C18 diacid])AQ[αMe4Pal]EFI[dE][αMeY]LVEGGPSSGEPPPSGTGE-NH2 [Example 734] :: 2.08

In: Name the recorded EC50 for H-Y[Aib]QGT[αMePhe(2-F)]TSD[4Pal]SI[αMeL]LD[Orn]K([AEEA-γGlu-C18 diacid])AQ[αMe4Pal]EFI[dE][αMeY]LQEGGPSSGEPPPSGS-NH2 [Example 648] .
Out: 20.3

In: Name the recorded EC50 for H-Y[Aib]QGT[αMePhe(2-F)]TSD[4Pal][αMeS]I[αMeL]LD[Orn]K([γGlu-γGlu-C18 diacid])AQ[Aib][Orn]FI[dE][αMeY]LQEGGPSSGEPPPEGSEE-NH2 [Example 585] .
Out: 6.25

In: Name the recorded EC50 for Y[Aib]QGT[αMePhe(2-F)]TSD[4Pal][αMeS]I[αMeL]LD[Orn]K([γGlu-γGlu-C18 diacid])AQ[Aib][Orn]FI[dE][αMeY]LQEGGPSSGEPPPEGGEE-NH2 [Example 586] .
Out: 4.58

In: Name the recorded EC50 for Y[Aib]QGT[αMePhe(2-F)]TSD[4Pal][αMeS]I[αMeL]LD[Orn]K([AEEA-γGlu-C18 diacid])AQ[Aib][Orn]FI[dE]YLIEGGPSSGEPPPSEG-NH2 [Example 463] .
Out: 4.27
